B1: Intersectin-1, residues 909 to 971; numbered along this chain, Q15811 (parent)
chain: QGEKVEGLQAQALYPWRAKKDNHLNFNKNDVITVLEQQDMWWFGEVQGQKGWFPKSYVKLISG

# Variants of: B1
# Test method notes: abundance fitness (aPCA) (normalised: wild type 0, dead -1); higher = more abundant; growth selection in yeast, the domain comes from the species named
# Condition: Homo sapiens
Can you tell me abundance fitness for the items I'm about to list?
Give bare numbers.

# batch: return abundance fitness for each of the 5 variants below
1. R17F
2. V31C
3. P15W
4. Q49D
5. P54G

Response:
1. -0.141
2. -0.08
3. -0.746
4. -0.466
5. -1.18

Return reported abundance fitness values for all items listed beneath this line.
1. H23Y
2. A12K
3. L35Q
4. L24F
5. D21A
6. D21W

Response:
-0.171
-0.773
-0.058
-0.466
0
-0.112
